In this section we review reported T½ values for a set of binders.
# Target of assay: T1, hPRLR.mmh (soluble monomeric human PRLR) (human)
# T1 construct: soluble monomeric construct
# T1 chain: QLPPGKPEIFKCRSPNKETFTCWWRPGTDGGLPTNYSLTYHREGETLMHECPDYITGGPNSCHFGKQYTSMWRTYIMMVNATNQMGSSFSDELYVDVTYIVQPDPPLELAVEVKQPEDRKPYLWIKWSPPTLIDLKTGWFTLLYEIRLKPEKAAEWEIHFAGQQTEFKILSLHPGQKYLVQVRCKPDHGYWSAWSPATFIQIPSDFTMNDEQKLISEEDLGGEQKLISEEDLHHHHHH
# Assay summary: SPR, 37C, mAb capture
Express the result in min but write the number alone.

{"Binder": "H1H6953N (antibody, human IgG1, V domains shown, also called H1M6953N) VH: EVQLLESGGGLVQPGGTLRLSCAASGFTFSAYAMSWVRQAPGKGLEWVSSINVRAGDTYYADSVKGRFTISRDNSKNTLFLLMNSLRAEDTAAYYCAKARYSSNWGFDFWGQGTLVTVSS VL: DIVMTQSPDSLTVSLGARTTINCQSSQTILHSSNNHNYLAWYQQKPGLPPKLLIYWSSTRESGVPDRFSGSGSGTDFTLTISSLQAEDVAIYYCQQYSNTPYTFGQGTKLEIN", "T½ [min]": 9.4}
{"Binder": "H1H6785P (antibody, human IgG1, V domains shown, human IgG1 Fc (H1H)) VH: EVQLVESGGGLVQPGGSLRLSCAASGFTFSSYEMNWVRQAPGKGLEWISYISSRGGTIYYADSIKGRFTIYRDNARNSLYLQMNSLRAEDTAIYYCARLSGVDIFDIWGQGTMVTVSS VL: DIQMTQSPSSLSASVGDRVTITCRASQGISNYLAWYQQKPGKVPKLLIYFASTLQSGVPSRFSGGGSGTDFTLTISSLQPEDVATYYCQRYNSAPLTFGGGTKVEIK", "T½ [min]": 24}
{"Binder": "H1H6762P (antibody, human IgG1, V domains shown, human IgG1 Fc (H1H)) VH: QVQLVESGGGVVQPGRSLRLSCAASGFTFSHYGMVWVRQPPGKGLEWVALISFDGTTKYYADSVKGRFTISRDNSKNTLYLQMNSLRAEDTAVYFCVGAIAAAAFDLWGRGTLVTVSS VL: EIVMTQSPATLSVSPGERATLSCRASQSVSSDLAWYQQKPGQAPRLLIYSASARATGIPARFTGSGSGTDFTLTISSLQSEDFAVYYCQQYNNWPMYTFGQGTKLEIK", "T½ [min]": 25}

Data point: H1H6792P (antibody, human IgG1, V domains shown, human IgG1 Fc (H1H)) VH: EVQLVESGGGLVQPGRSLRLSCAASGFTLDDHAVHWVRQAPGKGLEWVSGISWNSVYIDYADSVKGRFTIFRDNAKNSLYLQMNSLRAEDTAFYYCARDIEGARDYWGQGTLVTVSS VL: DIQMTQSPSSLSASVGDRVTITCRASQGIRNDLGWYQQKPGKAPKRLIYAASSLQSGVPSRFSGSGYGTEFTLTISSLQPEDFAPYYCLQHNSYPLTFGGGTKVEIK ; T½ = 5

Data point: H1H6782P (antibody, human IgG1, V domains shown, human IgG1 Fc (H1H)) VH: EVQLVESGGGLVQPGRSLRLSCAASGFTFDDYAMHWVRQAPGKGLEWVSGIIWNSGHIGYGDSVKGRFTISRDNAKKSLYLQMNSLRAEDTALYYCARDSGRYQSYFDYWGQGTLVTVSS VL: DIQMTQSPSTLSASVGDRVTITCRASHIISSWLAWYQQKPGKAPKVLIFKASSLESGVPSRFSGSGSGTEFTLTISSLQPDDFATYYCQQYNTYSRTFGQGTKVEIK ; T½ = 16
